Where do the numbers come from? From patent US20250066503A1.

target.desc: T1, soluble human CD3 epsilon chain (human, UniProt P07766 23-126)
T1 construct: also called CD3ε
experiment: SPR
endpoint.label: pKd
Give only the number. pKd is defined as minus log10 of concentration in molar units.

These solved cases illustrate the format of a correct answer.
{"binder": "TR01H037-E22Hh/none-Hi-Kn010G3/L0000-k0 (antibody, V domains shown, one-arm) VH: QVQLVESGGGLVQPGRSLRLSCAASGFTFSNAWMPWVRQAPGKGLEWVAQIKGKSNNYATYYAESVKGRFTISRADSKNSIYLQMNSLKTEDTAVYYCRYVHYSASYGVDIWGQGTTVTVSS VL: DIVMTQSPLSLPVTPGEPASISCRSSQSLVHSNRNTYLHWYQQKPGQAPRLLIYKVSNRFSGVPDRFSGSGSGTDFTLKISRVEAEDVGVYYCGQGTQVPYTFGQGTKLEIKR", "pKd": 8.16}
{"binder": "TR01H084-E22Hh/none-Hi-Kn010G3/L0201-k0 (antibody, V domains shown, one-arm) VH: QVQLVESGGGVVQPGGSLRLSCAASGFTFSNAWMHWVRQAPGKGLEWVAQIKDKSQNYATYYAESVKGRFTISRADSKNSIYLQMNSLKTEDTAVYYCRYVHYAAGYGVDIWGQGTTVTVSS VL: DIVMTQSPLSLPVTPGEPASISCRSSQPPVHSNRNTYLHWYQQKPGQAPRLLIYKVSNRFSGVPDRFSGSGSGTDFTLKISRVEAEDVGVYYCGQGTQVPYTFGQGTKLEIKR", "pKd": 7.78}

Q: Quick check: pKd of TR01H074-E22Hh/none-Hi-Kn010G3/L0000-k0 (antibody, V domains shown, one-arm) VH: QVQLVESGGGVVQPGGSLRLSCAASGFTFSNAWMHWVRQAPGKGLEWVAQIKDKSQNYATYYAESVKGRFTISRADSKNSIYLQMNSLKTEDTAVYYCRYVHYAASYGVDIWGQGTTVTVSS VL: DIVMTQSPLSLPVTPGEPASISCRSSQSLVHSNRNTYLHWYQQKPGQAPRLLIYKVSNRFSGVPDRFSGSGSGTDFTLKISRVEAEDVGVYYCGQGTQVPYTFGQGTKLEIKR ?
Result: 7.54
